- target.system: human 5-HT3 serotonin receptors (Homo sapiens (Human))
- Sequence (P46098 24-478): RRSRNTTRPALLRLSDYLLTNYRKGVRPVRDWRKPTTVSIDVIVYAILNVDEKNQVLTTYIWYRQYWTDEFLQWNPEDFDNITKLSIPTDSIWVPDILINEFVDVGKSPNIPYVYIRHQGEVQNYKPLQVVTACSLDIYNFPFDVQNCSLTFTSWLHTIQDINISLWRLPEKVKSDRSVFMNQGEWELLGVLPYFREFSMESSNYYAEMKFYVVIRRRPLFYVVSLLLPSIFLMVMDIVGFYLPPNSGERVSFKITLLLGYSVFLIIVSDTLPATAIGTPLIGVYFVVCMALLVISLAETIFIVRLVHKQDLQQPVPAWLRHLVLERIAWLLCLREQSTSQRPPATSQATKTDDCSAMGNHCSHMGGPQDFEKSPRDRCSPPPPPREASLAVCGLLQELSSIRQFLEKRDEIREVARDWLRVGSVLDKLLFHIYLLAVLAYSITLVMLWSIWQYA
- experiment.summary: [3H]BRL 43694 competition binding
- condition.label: CHO cell membranes, [3H]BRL 43694, Cheng Prusoff; read-out: h-5HT3 Ki
pKi: −log10 of the molar value. Where a name gives a salt, the structure may show the parent alone.
quantity: pKi

Q. Which pKi is listed for CC1(C)[C@H](NC(=O)c2cc3ccc(S(C)(=O)=O)cc3s2)C2CCN1CC2 [(R)-48, hydrochloride] ?
A. < 5.00

Q. Note, next up: Cc1ccc2cc(C(=O)N[C@@H]3C4CCN(CC4)C34CC4)sc2c1C#N [(R)-198, hydrochloride]
A. < 5.00

Q. Note, next up: O=C(N[C@@H]1C2CCN(CC2)C12CC2)c1cc2ccc(Cl)c(F)c2s1 [(R)-151, hydrochloride]
A. < 5.00

Q. Note, next up: O=C(N[C@@H]1C2CCN(CC2)C12CC2)c1cc2ccc(C3CCOCC3)cc2s1 [(R)-105, hydrochloride]
A. < 5.00
